- STUDY_SYSTEM: Dual specificity tyrosine-phosphorylation-regulated kinase 1A (Homo sapiens)
- ASSAY_OVERVIEW: NanoBRET (SGC Frankfurt) (DYRK1A)
ASSAY_METRIC: IC50 (nM)
Please reply with the bare figure in nM and do not write the unit itself.

Input: Give the observed IC50 of CN1CCN(C(=O)C(C)(C)c2ccc(C(=O)Nc3cn4cc(-c5ccncc5)ccc4n3)cc2)CC1 for Dual specificity tyrosine-phosphorylation-regulated kinase 1A (Homo sapiens).
Output: 32

* * *

- STUDY_SYSTEM: UniProt:P35367
- Sequence (P35367 whole entry): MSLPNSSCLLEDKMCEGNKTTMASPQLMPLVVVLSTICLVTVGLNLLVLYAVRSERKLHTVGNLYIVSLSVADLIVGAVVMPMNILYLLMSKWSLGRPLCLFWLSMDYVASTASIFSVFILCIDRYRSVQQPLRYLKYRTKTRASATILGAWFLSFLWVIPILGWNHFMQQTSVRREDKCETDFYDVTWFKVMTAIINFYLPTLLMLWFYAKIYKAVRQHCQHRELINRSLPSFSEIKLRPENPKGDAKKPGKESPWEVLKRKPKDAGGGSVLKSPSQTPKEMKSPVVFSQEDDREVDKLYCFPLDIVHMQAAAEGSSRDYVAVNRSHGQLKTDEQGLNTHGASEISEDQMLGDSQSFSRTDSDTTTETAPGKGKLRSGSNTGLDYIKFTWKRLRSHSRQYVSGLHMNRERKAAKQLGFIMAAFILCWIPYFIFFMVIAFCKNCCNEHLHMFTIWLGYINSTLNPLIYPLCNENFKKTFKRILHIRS
- ASSAY_OVERVIEW: GPCRScan assay: inhibition of H1
- Parameters: radioligand conc. used [nm] 0.6 – 2.0, parental cells stable HEK
- TEST_PARAMETERS: read-out: Ki
ASSAY_METRIC: pKi
Please express pKi as -log10 of the molar concentration.

> print(dat)
                                   compound  recorded.result
1  CN1CCN(C(=O)C(C)(C)c2ccc(C(=O)Nc3cn4cc(-c5cc(C(C)(C)C)cc(C(C)(C)C)c5)ccc4n3)cc2)CC1 [T3-CLK-N]             5.72

Next up:
Input: Tell me pKi of CN1CCN(C(=O)C(C)(C)c2ccc(C(=O)Nc3cn4cc(-c5ccncc5)ccc4n3)cc2)CC1 [T3-CLK] when tested on UniProt:P35367.
Output: 5.67
